# System: Kras and SOS1 (biotin-tagged human Kras loaded with GDP, His-tagged human SOS1) (Homo sapiens, UniProt P01116, G12D)
# Construct: made in house; host or cells: E. coli (stated for Kras only)
# Sequence (P01116 1-188 isoform P01116-2 G12D): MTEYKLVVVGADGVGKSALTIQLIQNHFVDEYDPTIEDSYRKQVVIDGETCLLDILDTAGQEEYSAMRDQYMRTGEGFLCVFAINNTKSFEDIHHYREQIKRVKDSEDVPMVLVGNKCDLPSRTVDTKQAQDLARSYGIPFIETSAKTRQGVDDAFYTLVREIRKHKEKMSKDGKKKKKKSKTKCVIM
# Protocol text: Protein-protein interaction inhibition between Kras and SOS1 (KrasGl2D-SOS PPI) using AlphaScreen
# Type: binding
# Condition description: AlphaScreen; biotin-tagged human Kras loaded with GDP, His-tagged human SOS1; read-out: KRAS G12D-SOS PPI IC50
Starred links: 1 amine or outer side, 2 acyl side, 3 side chain; linkers in the order of their positions; H or OH if unused. Positions of bridges follow the written chain, without caps; N, C: chain ends. Non-standard residues stand in square brackets, D forms with d. Residues, ends and D or L forms follow the SMILES beside them. *: point of attachment. hPhe(3-Cl-4-CF3) = N[C@@H](CCc1ccc(C(F)(F)F)c(Cl)c1)C(=O)O; X12 = CN([C@@H](Cc1ccc(C(F)(F)F)nc1)C(=O)[*:2])[*:1]; X71 = O=C([C@H](Cc1cc(Cl)cc(I)c1)N[*:1])[*:2]; 3Oxa8azabicyclo(3.2.1)octane = C1CC2COCC1N2*; NMeAbu(4,4,4-F3) = CN[C@@H](CC(F)(F)F)C(=O)O; NMePhe(4-Br) = CN[C@@H](Cc1ccc(Br)cc1)C(=O)O; NMedβ3hAla = C[C@H](CC(=O)[*:2])N(C)[*:1]; NMeAla(cPent) = CN[C@@H](CC1CCCC1)C(=O)O; NMeY = CN[C@@H](Cc1ccc(O)cc1)C(=O)O; NMeCha = CN[C@@H](CC1CCCCC1)C(=O)O; Pro(4-oxo) = O=C1CN[C@H](C(=O)O)C1; NMeChg = CN[C@H](C(=O)O)C1CCCCC1; NMeD = CN[C@@H](CC(=O)O)C(=O)O; NMeL = CN[C@@H](CC(C)C)C(=O)O; NMeV = CN[C@H](C(=O)O)C(C)C; NMeAbu = CC[C@H](NC)C(=O)O; NMeA = CN[C@@H](C)C(=O)O; NMeAib = CNC(C)(C)C(=O)O; Nle = CCCC[C@H](N)C(=O)O; Piperidide = C1CCN(*)CC1; Ac5c = NC1(C(=O)O)CCCC1; Aze = O=C(O)[C@@H]1CCN1; Sar = CNCC(=O)O
Entries and their log10(IC50) values follow.
Readout name: log10(IC50) (log10 of the value in nM)

[
  {
    "Compound": "CC[C@H](C)[C@@H]1NC(=O)[C@H](CC(C)C)N(C)C(=O)C[C@@H](C(=O)N2CCCCC2)N(C)C(=O)[C@H](C(C)C)N(C)C(=O)C2(CCCC2)NC(=O)[C@@H]2CC(=O)CN2C(=O)[C@H](CCc2ccc(C(F)(F)F)c(Cl)c2)NC(=O)CN(C)C(=O)[C@H](CC2CCCCC2)N(C)C(=O)[C@@H]2CCN2C(=O)[C@H](C)N(C)C1=O [Compound 1819] ([NMeL]I[NMeA][Aze][NMeCha][Sar][hPhe(3-Cl-4-CF3)][Pro(4-oxo)][Ac5c][NMeV][NMeD]-Piperidide; lactam N-11)",
    "log10(IC50)": 0.58
  },
  {
    "Compound": "CCCC[C@@H]1NC(=O)[C@H](Cc2cc(Cl)cc(I)c2)NC(=O)CN(C)C(=O)[C@H](Cc2ccc(OC)cc2)N(C)C(=O)[C@@H]2CCN2C(=O)[C@H](C)N(C)C(=O)[C@H]([C@@H](C)CC)NC(=O)[C@H](CC)N(C)C(=O)C[C@@H](C(=O)N2CCCCC2)N(C)C(=O)[C@H](CC(C)C)NC(=O)C(C)(C)N(C)C1=O [Compound 1156] ([NMeAbu]I[NMeA][Aze][NMeY](Me)[Sar][X71][Nle][NMeAib]L[NMeD]-Piperidide; lactam N-11)",
    "log10(IC50)": 2.15
  },
  {
    "Compound": "CC[C@H](C)[C@@H]1NC(=O)[C@H](CC(C)C)N(C)C(=O)C[C@@H](C)N(C)C(=O)[C@H](C(C)C)N(C)C(=O)C2(CCCC2)NC(=O)[C@@H]2CCCN2C(=O)[C@H](CCc2ccc(C(F)(F)F)c(Cl)c2)NC(=O)CN(C)C(=O)[C@H](Cc2ccc(Br)cc2)N(C)C(=O)CN(C)C(=O)CN(C)C1=O [Compound 1590] (cyclo([Ac5c][NMeV][NMedβ3hAla][NMeL]I[Sar][Sar][NMePhe(4-Br)][Sar][hPhe(3-Cl-4-CF3)]P))",
    "log10(IC50)": 0.51
  },
  {
    "Compound": "CC[C@H](C)[C@@H]1NC(=O)[C@H](CC(F)(F)F)N(C)C(=O)C[C@@H](C(=O)N2C3CCC2COC3)N(C)C(=O)[C@H](C2CCCCC2)N(C)C(=O)C2(CCCC2)NC(=O)[C@@H]2CCCN2C(=O)[C@H](CCc2ccc(C(F)(F)F)c(Cl)c2)NC(=O)CN(C)C(=O)[C@H](CC2CCCC2)N(C)C(=O)CN(C)C(=O)CN(C)C1=O [Compound 1057] ([NMeAbu(4,4,4-F3)]I[Sar][Sar][NMeAla(cPent)][Sar][hPhe(3-Cl-4-CF3)]P[Ac5c][NMeChg][NMeD]-{3Oxa8azabicyclo(3.2.1)octane}; lactam N-11)",
    "log10(IC50)": 0.08
  },
  {
    "Compound": "CC[C@H](C)[C@@H]1NC(=O)[C@H](CC(C)C)N(C)C(=O)C[C@@H](C(=O)N2CCCCC2)N(C)C(=O)[C@H](C2CCCCC2)N(C)C(=O)C2(CCCC2)NC(=O)[C@H](Cc2ccc(C(F)(F)F)nc2)N(C)C(=O)[C@H](CCc2ccc(C(F)(F)F)c(Cl)c2)NC(=O)CN(C)C(=O)[C@H](CC2CCCCC2)N(C)C(=O)[C@@H]2CCN2C(=O)[C@H](C)N(C)C1=O [Compound 479] ([NMeL]I[NMeA][Aze][NMeCha][Sar][hPhe(3-Cl-4-CF3)][X12][Ac5c][NMeChg][NMeD]-Piperidide; lactam N-11)",
    "log10(IC50)": 2.48
  }
]
